Some sequences, each annotated with its measured protein stability index.
test system: Saccharomyces cerevisiae; assay: protein stability index of tFT-peptide fusion in deletion strain of DOA10 (PSI (0-1 scale)); higher = more stable (slower turnover)
Note: the reply should be a number with no unit written.

As a guide, the following entries are already answered.
[[record]]
sequenceentry = "GLYMCSVGLWFR"
reportedproperty = "protein stability index"
resultnumber = 0.534

[[record]]
sequenceentry = "RLLRVLLPLYFR"
reportedproperty = "protein stability index"
resultnumber = 0.673

[[record]]
sequenceentry = "RVTRLDAIYFRIH"
reportedproperty = "protein stability index"
resultnumber = 0.143

[[record]]
sequenceentry = "RALRVLLPLYFR"
reportedproperty = "protein stability index"
resultnumber = 0.669

[[record]]
sequenceentry = "RVTWLDAIYFRI"
reportedproperty = "protein stability index"
resultnumber = 0.656

[[record]]
sequenceentry = "RVTRLDAIYFDI"
reportedproperty = "protein stability index"
resultnumber = 0.734

[[record]]
sequenceentry = "AITLPMFPLLLR"
reportedproperty = "protein stability index"
resultnumber = 0.638

[[record]]
sequenceentry = "RQTRLDAIYFRI"
reportedproperty = "protein stability index"
resultnumber = 0.703


Reported protein stability index ( RSLRNLLPLYFR ) = 0.687

Reported protein stability index ( GLYMCSVGCWFRH ) = 0.616

Reported protein stability index ( RVTRLDEIYFRI ) = 0.731

----------
test system: Saccharomyces cerevisiae; assay: protein stability index of tFT-peptide fusion (C-terminal peptide) (PSI (0-1 scale)); higher = more stable (slower turnover); settings: genetic background: wild type; temperature: 37 C
# label = bin(measured protein stability index), where bins are low (below 0.3), medium (0.3 to below 0.5), high (0.5 or more)

// below: answered sequences
[[record]]
sequenceentry = "FFVYRFFSLSVC"
measurementtarget = "Saccharomyces cerevisiae"
labelvalue = "low"

[[record]]
sequenceentry = "GGGWAVLLWVQV"
measurementtarget = "Saccharomyces cerevisiae"
labelvalue = "medium"

[[record]]
sequenceentry = "YFVLVRLICFLL"
measurementtarget = "Saccharomyces cerevisiae"
labelvalue = "medium"


State the band of DNTYRIDIKNKQ
high

State the band of PAPQAVRIFSLY
medium

State the band of HILRLVYFIVYE
high

State the band of LVMYRSALIRGH
high

State the band of SHWSMQATLQLV
high

State the band of VACLRLTVYVMG
low

----------
test system: Saccharomyces cerevisiae; assay: protein stability index of tFT-peptide fusion in deletion strain of DAS1 (PSI (0-1 scale)); higher = more stable (slower turnover)
reportedProperty: protein stability index
Note: the reply should be a number with no unit written.

As a guide, the following entries are already answered.
[[record]]
sequenceentry = "RLIQPLPVMFLN"
reportedproperty = "protein stability index"
resultnumber = 0.564

[[record]]
sequenceentry = "KKHKKGKKQKIN"
reportedproperty = "protein stability index"
resultnumber = 0.579


Reported protein stability index ( ARWRVGLWRGTS ) = 0.682

Reported protein stability index ( LVVYVSCVACIN ) = 0.0341

Reported protein stability index ( CTSCGYKFRTNK ) = 0.704

Reported protein stability index ( PQKRNHLIKLLN ) = 0.597

Reported protein stability index ( PPLAASFWRVVG ) = 0.673

Reported protein stability index ( CTGCGYKFRTNN ) = 0.678

Reported protein stability index ( PDKANHLIKLLN ) = 0.594

Reported protein stability index ( PSLWASFWRVVG ) = 0.697

----------
tested on: Saccharomyces cerevisiae; experiment: protein stability index of tFT-peptide fusion (C-terminal peptide) (PSI (0-1 scale)); higher = more stable (slower turnover); conditions: genetic background: wild type; temperature: 30 C
reportedProperty: protein stability index
Note: the reply should be a number with no unit written.

As a guide, the following entries are already answered.
[[record]]
sequenceentry = "FISVFALWDVFL"
resultnumber = 0.7

[[record]]
sequenceentry = "PPPWPSLCLPPS"
resultnumber = 0.706


Reported protein stability index ( TGNSPSRTGNGI ) = 0.647

----------
system: Saccharomyces cerevisiae; assay: protein stability index of tFT-peptide fusion (C-terminal peptide) (PSI (0-1 scale)); higher = more stable (slower turnover); details: genetic background: wild type; temperature: 30 C
Would you please tag the item MET when its protein stability index is 0.7 or above, and NOT MET when it is below?

// below: answered sequences
[[record]]
sequenceentry = "VVRLRVWRLLKV"
labelvalue = "NOT MET"

[[record]]
sequenceentry = "EPAFMRRFMSNK"
labelvalue = "NOT MET"

[[record]]
sequenceentry = "PTPPLPYRPRSP"
labelvalue = "NOT MET"

[[record]]
sequenceentry = "SPLDSPPLSSPP"
labelvalue = "NOT MET"

[[record]]
sequenceentry = "VRRVWYGSFSRL"
labelvalue = "MET"

[[record]]
sequenceentry = "WMTFTTAVTDGG"
labelvalue = "NOT MET"

[[record]]
sequenceentry = "KQVIIEKSIQQR"
labelvalue = "NOT MET"

[[record]]
sequenceentry = "DPPPPSPPASMP"
labelvalue = "NOT MET"

[[record]]
sequenceentry = "CFPLPRPLPYME"
labelvalue = "NOT MET"

[[record]]
sequenceentry = "GLLFWSGVVSWV"
labelvalue = "NOT MET"


Please indicate if the recorded protein stability index for VGDGGGEVMGEA meets or exceeds 0.7.
NOT MET

Please indicate if the recorded protein stability index for YERPIVAAVRSR meets or exceeds 0.7.
MET

Please indicate if the recorded protein stability index for YPSLPTLCSKQP meets or exceeds 0.7.
NOT MET

Please indicate if the recorded protein stability index for FRPLPPPPPSPT meets or exceeds 0.7.
NOT MET

----------
Some sequences, each annotated with its measured protein stability index.
system: Saccharomyces cerevisiae; assay: protein stability index of tFT-peptide fusion (C-terminal peptide) (PSI (0-1 scale)); higher = more stable (slower turnover); conditions: genetic background: wild type; temperature: 30 C

As a guide, the following entries are already answered.
[[record]]
sequenceentry = "HRLTGMRKRGRG"
result = 0.658

[[record]]
sequenceentry = "AGSQEDGRSIKG"
result = 0.669

[[record]]
sequenceentry = "VCALGWWASWVW"
result = 0.551

[[record]]
sequenceentry = "GGGGGAKGEGVR"
result = 0.733

[[record]]
sequenceentry = "ACCGVFFFFFWL"
result = 0.404

[[record]]
sequenceentry = "RKKIKRKNNKEK"
result = 0.685


Here's the next entry for you.
Reported protein stability index ( GDLASASAWGVR ) = 0.681

----------
test system: Saccharomyces cerevisiae; assay: protein stability index of tFT-peptide fusion (C-terminal peptide) (PSI (0-1 scale)); higher = more stable (slower turnover); conditions: genetic background: wild type; temperature: 37 C
Would you please tag the item rule met when its protein stability index is 0.5 or above, and rule not met when it is below?

// below: answered sequences
[[record]]
sequenceentry = "DFIVVIRFIQII"
labelvalue = "rule not met"

[[record]]
sequenceentry = "KLRELQVRQQLS"
labelvalue = "rule not met"

[[record]]
sequenceentry = "LGVVLFCFRFCR"
labelvalue = "rule met"

[[record]]
sequenceentry = "VPGPSPPRFTQR"
labelvalue = "rule met"

[[record]]
sequenceentry = "SCCGCGFGLLFC"
labelvalue = "rule met"

[[record]]
sequenceentry = "LCFVCLWGYLGV"
labelvalue = "rule not met"


Please indicate if the recorded protein stability index for LVSWAWIWIFVF meets or exceeds 0.5.
rule not met

Please indicate if the recorded protein stability index for ILRKTAFRLRVL meets or exceeds 0.5.
rule not met

Please indicate if the recorded protein stability index for VGAYSVVYVVFS meets or exceeds 0.5.
rule met

Please indicate if the recorded protein stability index for HSAIFLFFFFFG meets or exceeds 0.5.
rule not met

Please indicate if the recorded protein stability index for YVLWFVCGVGFV meets or exceeds 0.5.
rule not met

Please indicate if the recorded protein stability index for LQSVAFERGGPD meets or exceeds 0.5.
rule met

Please indicate if the recorded protein stability index for ENKGGNQKRRKK meets or exceeds 0.5.
rule met

Please indicate if the recorded protein stability index for GGGGGGGGGGVG meets or exceeds 0.5.
rule not met

Please indicate if the recorded protein stability index for IWIRLGSENTVI meets or exceeds 0.5.
rule met

Please indicate if the recorded protein stability index for AFYQSGGLVVVV meets or exceeds 0.5.
rule met

Please indicate if the recorded protein stability index for YPLISVSLPCPS meets or exceeds 0.5.
rule met

----------
tested on: Saccharomyces cerevisiae; experiment: protein stability index of tFT-peptide fusion (C-terminal peptide) (PSI (0-1 scale)); higher = more stable (slower turnover); conditions: genetic background: wild type; temperature: 30 C
Would you please tag the item fulfilled when its protein stability index is 0.7 or above, and not fulfilled when it is below?

Please indicate if the recorded protein stability index for PSSLSSLPPPSP meets or exceeds 0.7.
not fulfilled

Please indicate if the recorded protein stability index for LESSLPIDSERC meets or exceeds 0.7.
not fulfilled

----------
test system: Saccharomyces cerevisiae; assay: protein stability index of tFT-peptide fusion (C-terminal peptide) (PSI (0-1 scale)); higher = more stable (slower turnover); settings: genetic background: wild type; temperature: 30 C
reportedProperty: protein stability index
Note: the reply should be a number with no unit written.

As a guide, the following entries are already answered.
[[record]]
sequenceentry = "YVFSPWSCWASV"
reportedproperty = "protein stability index"
resultnumber = 0.405

[[record]]
sequenceentry = "GWIFFYFTWFVG"
reportedproperty = "protein stability index"
resultnumber = 0.172

[[record]]
sequenceentry = "LLVKFTFLIIFT"
reportedproperty = "protein stability index"
resultnumber = 0.2

[[record]]
sequenceentry = "ISVSFSVIFFLL"
reportedproperty = "protein stability index"
resultnumber = 0.0951

[[record]]
sequenceentry = "WLFRASSFNWVI"
reportedproperty = "protein stability index"
resultnumber = 0.105

[[record]]
sequenceentry = "GGGWAVLLWVQV"
reportedproperty = "protein stability index"
resultnumber = 0.317

[[record]]
sequenceentry = "VCTFLLVSFFLS"
reportedproperty = "protein stability index"
resultnumber = 0.185

[[record]]
sequenceentry = "MALAVRVVTCGA"
reportedproperty = "protein stability index"
resultnumber = 0.223


Reported protein stability index ( RGRLKSSYFILF ) = 0.534

Reported protein stability index ( TCVTLRYRLTFE ) = 0.522
